B1: library; numbered along this chain (parent)
chain: MRKPRAAVGSGHRKQAASQEGRQKHAKNNSQAKPSACDGLARQPEEVVLQASVSSYHLFRDVAEVTAFRGSLLSWYDQEKRDLPWRRRAEDEMDLDRRAYAVWVSEVMLQQTQVATVINYYTGWMQKWPTLQDLASASLEEVNQLWAGLGYYSRGRRLQEGARKVVEELGGHMPRTAETLQQLLPGVGRYTAGAIASIAFGQATGVVDGNVARVLCRVRAIGADPSSTLVSQQLWGLAQQLVDPARPGDFNQAAMELGATVCTPQRPLCSQCPVESLCRARQRVEQEQLLASGSLSGSPDVEECAPNTGQCHLCLPPSEPWDQTLGVVNFPRKASRKPPREESSATCVLEQPGALGAQILLVQRPNSGLLAGLWEFPSVTWEPSEQLQRKALLQELQRWAGPLPATHLRHLGEVVHTFSHIKLTYQVYGLALEGQTPVTTVPPGARWLTQEEFHTAAVSTAMKKVFRVYQGQQPGTCMGSKRSQVSSPCSRKKPRMGQQVLDNFFRSHISTDAHSLNSAAQ

variants of: B1; experiment: 8OG:A repair function score (normalized; synonymous = 0, nonsense = -1) (normalized log-likelihood score); higher = more repair activity (WT-like); details: with 8OG:A DNA repair reporter (GFP) in HEK-293 MUTYH KO cells;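 note: cells sorted at 72 h after reporter transfection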
Please provide measured 8OG:A repair function score for the entries that follow.
One number for each entry.

The following variants have reported results that may help.
R495F | -0.0118
A259G | -0.148
G353M | -0.178
E303F | -0.112
G123M | -0.101

Lab note: each variant below needs its 8OG:A repair function score filled in.
1. L411E
2. H172Y

1: -0.473; 2: -0.0294
